- system-under-test: T1, Pfu-TkodTS L381R/K502R (Pyrococcus furiosus / Thermococcus …, UniProt P61875 1-590+D0VWU9:590-774, L381R;K502R;internal_change)
- T1 sequence: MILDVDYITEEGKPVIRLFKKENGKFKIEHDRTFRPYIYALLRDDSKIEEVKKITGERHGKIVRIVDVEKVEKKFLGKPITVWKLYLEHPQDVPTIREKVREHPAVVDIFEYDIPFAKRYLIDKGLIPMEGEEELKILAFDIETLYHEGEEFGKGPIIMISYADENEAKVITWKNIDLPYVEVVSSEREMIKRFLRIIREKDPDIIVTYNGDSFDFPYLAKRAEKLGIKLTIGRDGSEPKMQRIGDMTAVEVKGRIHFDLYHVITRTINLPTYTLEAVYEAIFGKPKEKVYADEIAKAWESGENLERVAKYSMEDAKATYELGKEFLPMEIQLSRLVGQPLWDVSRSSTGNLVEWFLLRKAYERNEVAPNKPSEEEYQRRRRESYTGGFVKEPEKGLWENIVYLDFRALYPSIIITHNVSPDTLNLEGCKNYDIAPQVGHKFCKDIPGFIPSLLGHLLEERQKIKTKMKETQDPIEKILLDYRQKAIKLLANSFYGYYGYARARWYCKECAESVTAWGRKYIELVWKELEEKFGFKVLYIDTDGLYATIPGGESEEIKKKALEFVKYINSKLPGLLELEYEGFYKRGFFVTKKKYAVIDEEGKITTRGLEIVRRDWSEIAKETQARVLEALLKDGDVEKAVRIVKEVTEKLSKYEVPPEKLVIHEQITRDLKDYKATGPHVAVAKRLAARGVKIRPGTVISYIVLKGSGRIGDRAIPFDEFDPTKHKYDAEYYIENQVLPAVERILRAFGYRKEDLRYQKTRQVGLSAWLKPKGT
- test-name: fluorescence anisotropy; 20 mM Tris-HCl pH 8.5, 10 mM KCl, 10 mM (NH4)2SO4 (ionic strength 40); 10 nM Hex primer-template; rest of buffer and temperature not in material
- test-context: protein: recombinant; label: 5'-hexachlorofluorescein on primer (strand 1); 5' overhang 20 nt on template (strand 2)
measured-attribute: Kd (nM)
Kindly provide the numeric value in nM only, without the unit symbol.

Recorded Kd for Hex primer-template (24/44) (dsDNA) DNA 1: GGGGATCCTCTAGAGTCGACCTGC DNA 2: GGAGACAAGCTTGCTTGCCAGCAGGTCGACTCTAGAGGATCCCC , please? 50
